Origin of measurements: patent US20050282743A1

Classification values for the binders below.
Target: T1, GST-KIAA1526 PDZ domain 1 (Homo sapiens (Human)), Q9P202
T1 chain: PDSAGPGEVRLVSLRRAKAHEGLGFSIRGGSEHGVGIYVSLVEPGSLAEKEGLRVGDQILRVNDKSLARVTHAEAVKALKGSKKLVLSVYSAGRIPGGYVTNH
Test: G' assay; also: key of the grades not given here
Quick note: give the figure in A450 class, leave out the unit.

1. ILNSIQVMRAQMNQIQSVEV (modifications not checked) [ephrin B2]	3
2. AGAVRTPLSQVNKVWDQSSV (modifications not checked) [CITRON protein]	1
3. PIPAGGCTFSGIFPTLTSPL (modifications not checked) [KIA 1481]	2

Tell me the measured Classification of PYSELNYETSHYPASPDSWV (modifications not checked) [catenin - delta 2] , please. 2
